system: Protein disulfide-isomerase (Homo sapiens) (UniProt P07237)
Sequence (P07237 whole entry, looked up): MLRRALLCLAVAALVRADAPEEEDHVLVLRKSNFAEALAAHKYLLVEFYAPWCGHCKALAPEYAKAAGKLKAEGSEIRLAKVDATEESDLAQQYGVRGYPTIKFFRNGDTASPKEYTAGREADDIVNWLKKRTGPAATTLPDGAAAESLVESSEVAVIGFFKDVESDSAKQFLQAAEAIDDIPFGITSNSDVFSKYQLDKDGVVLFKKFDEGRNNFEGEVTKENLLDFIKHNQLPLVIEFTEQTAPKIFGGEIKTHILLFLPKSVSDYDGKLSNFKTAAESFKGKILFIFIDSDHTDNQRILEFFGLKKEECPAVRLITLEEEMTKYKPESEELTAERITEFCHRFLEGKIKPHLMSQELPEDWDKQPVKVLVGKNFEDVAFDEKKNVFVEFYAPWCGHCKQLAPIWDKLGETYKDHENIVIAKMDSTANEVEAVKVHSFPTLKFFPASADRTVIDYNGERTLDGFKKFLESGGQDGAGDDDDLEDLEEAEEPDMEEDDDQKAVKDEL
assay.text: inhibition of PDI-mediated insulin reduction – biochemical, turbidity, absorbance, cherry-picked samples, set 2, dose response (AID 624274)
test.context: absorbance 650 nm
value.type: AC50

Reference set (6 entries):
INSERT INTO measurements (compound, observed_value) VALUES
  ('CCN1CC2(COC(=O)c3ccccc3N)CCC(OC)C34C5CC6C(OC)CC(O)(C5C6OC)C(O)(C(OC)C23)C14 (stereo not drawn)', '19.5 µM'),
  ('Cc1noc(C)c1S(=O)(=O)Nc1ccc2c(c1)CC(=O)N([C@@H](C)CO)C[C@@H](C)[C@H](CN(C)S(=O)(=O)c1ccc(F)cc1)O2', '19.5 µM'),
  ('C[C@H](CO)N1C[C@H](C)[C@@H](CN(C)Cc2ccc(Oc3ccccc3)cc2)Oc2c(NS(C)(=O)=O)cccc2C1=O', '19.5 µM'),
  ('O=c1c(O[C@H]2O[C@@H](CO)[C@H](O)[C@@H](O)[C@@H]2O)c(-c2ccc(O)cc2)oc2cc(O)cc(O)c12', '0.0155 µM'),
  ('COc1ccc(C(=O)Nc2ccccc2C(=O)NCc2ccco2)cc1', '0.819 µM'),
  ('Cc1cccn2c(CN(C)C3CCCc4ccccc43)c(C(=O)N3CCOCC3)nc12 (stereo not drawn)', '19.5 µM');

Data request: Entry COc1ccccc1N1CCN(C(=O)C(=O)N/N=C/c2cccc(O)c2)CC1 : reported AC50 = ?
Data returned: 19.5 µM

Data request: For the compound shown here, CCOC(=O)C1(CCOc2ccccc2)CCN(Cc2ccc(O)c(Cl)c2)CC1 , give the reported AC50.
Data returned: 0.599 µM
